- System: UO-31 renal
- Protocol Notes: NCI-60 one-dose screen, 48 h
- Reported Conditions: 10 µM unless noted
The panel holds about 83,000 compounds, 20% with a hit somewhere; the sample as a whole holds those more often. Calls of active or inactive are those of the source. The calls were made as follows: active = growth percent below 10; inactive = the rest.
Outcome codes: YES (active), NO (inactive)

> print(dat)
                                    compound  category
 1  CCO/C=N/C1=C(C#N)C(c2ccc(OC)cc2)c2sc3c(F)cccc3c2O1 (centres undefined)        NO
 2  O=C(Nc1nc2ccc(F)cc2s1)c1cccnc1Nc1ccc(Cl)cc1        NO
 3  COc1ccc2[nH]cc(-c3nc(-c4cn(C)c5c(Cl)nccc45)cs3)c2c1        NO
 4  O=C(N/N=C/c1ccc(F)cc1)c1ccc(C(F)(F)F)nc1Nc1cccc(C(F)(F)F)c1       YES
 5  N#C/C(=C\c1ccc(-c2ccc(Cl)cc2)o1)C(=O)Nc1ncc(Cc2ccc(Cl)cc2)s1        NO
 6  Cc1ccc(CNc2ccc(Cl)cc2NCc2ccc(C)c(O)c2)cc1O        NO
 7  COCCn1c(-c2csc(-c3cn(C)c4ccc(OC)cc34)n2)cc2cccnc21        NO
 8  COC(=O)c1c2c(c(C)[n+]([O-])c1C)C(=O)C=C(NCc1ccc(Br)cc1)C2=O       YES
 9  Cc1cc2c([nH]1)CSc1cc(S(=O)(=O)c3ccccc3)c(=O)[nH]c1-2        NO
10  O=C(O)c1ccc(-n2cc(/C=N/Nc3ccc(F)cc3)c(-c3cc4ccccc4oc3=O)n2)cc1        NO
11  CCCCC[C@@H]1Cc2cc(O)c(C(=O)O)c3c2[C@H](C[C@]2(OC[C@@H](CC(=O)[C@@](C)(CC)C(=O)OC)[C@@H]2C)O3)O1        NO
12  CC(C)CCNC(=O)Cn1cccc(NC(=O)OCc2ccccc2)c1=O        NO
13  O=C(CN1C(=O)CCC1=O)Nc1ncc(Cc2ccc(F)cc2)s1        NO
14  CCCCN1C(=O)/C(=c2\sc3n(c2=O)C2C(NN=3)N(CC)C(=O)N2CC)c2ccccc21 (centres undefined)        NO
15  CCn1c(=S)sc2c(Nc3ccc(F)cc3)nc(-c3cccnc3)nc21        NO
16  CSc1nc2sc3c(c2c(=O)n1-c1ccc([N+](=O)[O-])cc1)CCCCC3        NO
17  CCc1ccc(Oc2cn[nH]c2-c2ccc(OCCc3ccc(F)cc3)cc2O)cc1        NO
18  C=C(C)[C@@H]1CC[C@]2(C(=O)NCC#CCN3CCN(C)CC3)CC[C@]3(C)[C@H](CC[C@@H]4[C@@](C)(CCC#N)[C@H](C(=C)C)CC[C@]43C)[C@@H]12        NO
19  CCOC(=O)CSc1ncnc2c1c(-c1ccccc1)c(-c1ccccc1)n2-c1ccc(C)cc1        NO
20  COC(=O)c1cc(-c2ccccc2)[nH]c1N/N=C/c1c(Cl)cccc1Cl        NO
21  C1=CN2CC(c3ccccc3)=NNC2c2ccccc21 (centres undefined)        NO
22  C=CCn1c(SCC(=O)NCc2cc(C)c(O)c(C)c2)nc2ccc(Cl)cc2c1=O        NO
23        Clc1ccc(CNc2c3ccccc3nc3ccccc23)cc1        NO
24  Nc1c(C(=O)Nc2ccncc2)sc2nc3c(cc12)CCCCCC3        NO
25  O=[N+]([O-])c1ccc(N/N=C(/C(=N/Nc2ccc([N+](=O)[O-])cc2)c2ccccc2)c2ccccc2)cc1        NO
26  Cc1ccc(/C=N/Nc2nc(Nc3ccccc3)nc(-n3nc(C)cc3C)n2)cc1        NO
27  CN1CCN(Cc2ccc3c(NNC(=O)c4ccccc4)nc4cc(F)ccc4n23)CC1       YES
28  Cc1ccc(-c2nn(-c3ccccc3)cc2C=C2C(=O)ON=C2C(C)C)cc1        NO
29    O=c1oc2ccccc2cc1C1=NN=C(SCc2ccccc2)SC1        NO
30  CC1(C)c2[nH]c3ccccc3c2C[C@]2(C)[C@H]3CC=C4[C@@H]5C[C@@](C)(C(N)=O)CC[C@]5(C)CC[C@@]4(C)[C@]3(C)CC[C@@H]12        NO
31  COc1cc(CNS(=O)(=O)c2ccc(C)cc2)ccc1OCc1cn(-c2ccc(F)cc2)nn1        NO
32  O=C(NNc1nccc(Nc2ccc(S(=O)(=O)Nc3ccncc3)cc2)n1)c1ccccc1        NO
33  CN1CCN(C(=O)OCc2ccc3c(Cl)cc(Cl)c(O)c3n2)CC1        NO
34   O=C(OCc1ccc2c(Cl)cc(Cl)c(O)c2n1)n1cncn1        NO
35  O=C(Nc1cccc([N+](=O)[O-])c1)c1cc2ccccc2cc1O       YES
36  O=C1c2cccc(NCCN=Cc3cc(O)ccc3O)c2C(=O)c2c(NCCN=Cc3cc(O)ccc3O)cccc21       YES
37                         C1=C(N2CCCC2)CCC1        NO
38   O=C1/C(=C/c2ccc(F)cc2)COc2ccc(O)c(O)c21       YES
39  COC1=CC(c2ccc[nH]2)=N/C1=C\c1[nH]c(C)c(C(=O)OCc2ccccc2)c1C       YES

====

- System: HCT-116 colon
- Protocol Notes: NCI-60 one-dose screen, 48 h
- Reported Conditions: 10 µM unless noted
The panel holds about 83,000 compounds, 20% with a hit somewhere; the sample as a whole holds those more often. Active and inactive are the calls of the source. The calls were made as follows: active = growth percent below 10; inactive = the rest.
Outcome codes: TRUE = active, FALSE = inactive

> print(dat)
                                    molecule  system.tested  category
 1  O=S(=O)(Nc1ccccc1)c1ccc(C2CC3(Cl)C(Cl)=C(Cl)C2(Cl)C3(Cl)Cl)cc1 (stereo not drawn)  HCT-116 colon     FALSE
 2  CC1=Nc2cnc(Nc3ccc(OCCN4CCCC4)cc3)nc2Nc2ccccc21  HCT-116 colon     FALSE
 3  COc1ccc(-c2nnc3n(C)c(=O)c4ccccc4n23)cc1N  HCT-116 colon     FALSE
 4  Cc1ccc(S(=O)(=O)N2CCCC2CO)cc1 (stereo not drawn)  HCT-116 colon     FALSE
 5  Cc1cc2c(O)c(-c3cc(Cl)ccc3Cl)c3sc(=O)oc3c2cc1C  HCT-116 colon     FALSE
 6  CO[C@H]1/C=C(/C)CCC[C@H](C)[C@H](O)[C@@H](C)C(=O)C(C)(C)[C@@H](O)CC(=O)O[C@@H]1/C(C)=C/c1csc(C)n1  HCT-116 colon      TRUE
 7  COc1ccc(C2=Nc3c/c(=C\c4c(O)[nH]c5ccc(Cl)cc45)ccc3=N2)cc1  HCT-116 colon     FALSE
 8  OCc1cccc(-c2ccc3ncc(-c4nc(NC5CC5)ncc4F)n3c2)c1  HCT-116 colon      TRUE
 9  CCNc1nc(-c2ccc(Cl)c(OC)c2)c(-c2ccnc(NCCCNS(=O)(=O)c3ccc(Cl)cc3)n2)s1  HCT-116 colon     FALSE
10  COc1ccc(-c2cn(-c3cc(OC)c(OC)c(OC)c3)c(=O)n2C(C)=O)cc1  HCT-116 colon     FALSE
11    CC(=O)n1nc(C(=O)OC(C)C)c2cc(C)c(C)cc21  HCT-116 colon     FALSE
12  Cc1ccc(-c2nc3nc(-c4ccc(F)cc4)nc(N4CCNCC4)c3o2)cc1  HCT-116 colon      TRUE
13  O=C(/C=C/c1ccccc1)c1cccc(OCCCOc2cccc(C(=O)/C=C/c3ccccc3)c2)c1  HCT-116 colon      TRUE
14    N#Cc1c(N)nnn1Cc1cc(=O)oc2c1ccc1ccccc12  HCT-116 colon     FALSE
15  O=C1/C(=C/c2ccc(Cl)c(Cl)c2)CN(C(=O)C(Cl)Cl)C/C1=C\c1ccc(Cl)c(Cl)c1  HCT-116 colon      TRUE
16  CCOc1nc(-c2ccccc2)cc2c(O)c(C(=O)NN)[nH]c(=O)c12  HCT-116 colon     FALSE
17  O=C(CSc1nc2ccc([N+](=O)[O-])cc2[nH]1)Nc1cccc(C(F)(F)F)c1  HCT-116 colon     FALSE
18       Cc1ccc(NC(=S)NNC(=S)NNc2ccccc2)cc1C  HCT-116 colon     FALSE
19  CC(C)=CCC[C@](C)(O)[C@H]1CC[C@]2(C)[C@@H]1CC[C@@H]1[C@@]3(C)Cc4nccnc4C(C)(C)[C@@H]3CC[C@]12C  HCT-116 colon     FALSE
20  COc1cccc(CNc2ncnc3c2ncn3C2OC(CO)C(O)C2O)c1O (stereo not drawn)  HCT-116 colon     FALSE
21  COc1ccc(OC)c(-c2c(C#N)c(-c3cccs3)nc3c2c(-c2ccccc2)nn3-c2ccccc2)c1  HCT-116 colon     FALSE
22  CCN(CC)CCOc1ccc(-c2c(-c3ccccc3)c(=O)oc3ccccc23)cc1  HCT-116 colon     FALSE
23  CN1CCN(c2ccc(NC(=O)c3nc4ccc5[nH]ncc5c4c4c3CCCC4)cc2C(F)(F)F)CC1  HCT-116 colon      TRUE
24  COc1ccc2c(O)c(/C=C3\N=Nc4ccccc43)oc2c1C[C@@H]1CCNC[C@H]1F  HCT-116 colon      TRUE
25  CCCCC[C@@H]1Cc2cc(O)c(C(=O)O)c3c2[C@H](C[C@]2(OC[C@@H](CC(=O)[C@@](C)(CC)C(=O)OC)[C@@H]2C)O3)O1  HCT-116 colon     FALSE
26  COC(=O)c1cc(-c2ccc(OC)cc2)[nH]c1N/N=C/c1c(Cl)cccc1Cl  HCT-116 colon      TRUE
27        Cc1noc(C)c1C(=O)OCc1coc2ccccc2c1=O  HCT-116 colon     FALSE
28  C[C@@H]1CCC[C@H]1CC(N)C(=O)O (stereo partly drawn)  HCT-116 colon     FALSE
29  O=C(CSc1nc2ccc([N+](=O)[O-])cc2[nH]1)Nc1ccc(F)cc1  HCT-116 colon     FALSE
30  Cc1ccc(-c2csc(NC(=O)CN3CCN(c4cc5c(cc4F)c(=O)c(C(=O)O)cn5C4CC4)CC3)n2)cc1  HCT-116 colon     FALSE
31  CCOC(=O)Cn1c(O)c(N=Nc2ccc(S(N)(=O)=O)cc2)c2cc(Br)ccc21  HCT-116 colon     FALSE
32  CN1CCN(C(=O)c2ccc(NC(=O)Nc3ccc(-c4nc(N5CCOCC5)c5cccn5n4)cc3)cc2)CC1  HCT-116 colon      TRUE
33  Cc1nc2c(=O)[nH]c(SCC(=O)Nc3cccc(F)c3)nc2[nH]c1=O  HCT-116 colon     FALSE
34  O=C1CNC(c2ccccc2)C(c2ccccc2)N1 (stereo not drawn)  HCT-116 colon     FALSE
35  CC(C)c1ccc(COCc2cc(CN3CCCC3)c(O)c3ncccc23)cc1  HCT-116 colon      TRUE
36  CC1(c2ccccc2O)NN=C(/N=C/c2cccc([N+](=O)[O-])c2)N1C(Cc1c[nH]c2ccccc12)C(=O)O (stereo not drawn)  HCT-116 colon     FALSE
37  O=C(Cn1cc(CN2C(=O)c3ccccc3S2(=O)=O)nn1)Nc1nc2ccccc2s1  HCT-116 colon     FALSE
38  COc1cc(-c2cc(-c3ccc(N(C)C)cc3)nc(N3CCC(O)CC3)c2C#N)cc(OC)c1OC  HCT-116 colon      TRUE

Data provenance: PubChem BioAssay (NCI)
